- PROTOCOL_DETAILS: In vivo biodistribution in mice
- Set-up: species or system normal CD-1 male mice
- TEST_CONDITIONS: iv, 120 min post injection
ATTRIBUTE_MEASURED: Biodistribution: Brain (% dose/g)
Report as a plain number; the unit % dose/g is understood.

Give the measured Biodistribution: Brain of O=C([O-])CN(CCN(CC(=O)[O-])Cc1cc(CCC(=O)NC(P(=O)(O)O)P(=O)(O)O)ccc1[O-])Cc1cc(CCC(=O)NC(P(=O)(O)O)P(=O)(O)O)ccc1[O-].[68Ga+3] [[^68Ga]2] .
0.02

And for C[C@H](NC(=O)CCc1ccc([O-])c(CN(CCN(CC(=O)[O-])Cc2cc(CCC(=O)NC(P(=O)(O)O)P(=O)(O)O)ccc2[O-])CC(=O)[O-])c1)C(=O)O.[68Ga+3] [[^68Ga]1d] ?
0.00

And for O=C([O-])CN(CCN(CC(=O)[O-])Cc1cc(CCC(=O)NC(P(=O)(O)O)P(=O)(O)O)ccc1[O-])Cc1cc(CCC(=O)NCC(=O)O)ccc1[O-].[68Ga+3] [[^68Ga]1c] ?
0.02

And for O=C([O-])CN(CCN(CC(=O)[O-])Cc1cc(CCC(=O)O)ccc1[O-])Cc1cc(CCC(=O)O)ccc1[O-].[68Ga+3] [[^68Ga]HBED-CC, reference compound] ?
0.02

And for O=C([O-])CN(CCN(CC(=O)[O-])Cc1cc(CCC(=O)NC(P(=O)(O)O)P(=O)(O)O)ccc1[O-])Cc1cc(CCC(=O)NCCCCCC(=O)NCCCC[C@H](NC(=O)N[C@@H](CCC(=O)O)C(=O)O)C(=O)O)ccc1[O-].[68Ga+3] [[^68Ga]1g] ?
0.02

And for O=C([O-])CN(CCN(CC(=O)[O-])Cc1cc(CCC(=O)NC(P(=O)(O)O)P(=O)(O)O)ccc1[O-])Cc1cc(CCC(=O)NCCCNC(=O)CCc2ccc(O)c(CN(CCN(CC(=O)O)Cc3cc(CCC(=O)NC(P(=O)(O)O)P(=O)(O)O)ccc3O)CC(=O)O)c2)ccc1[O-].[68Ga+3] [[^68Ga]3] ?
0.05

And for O=C([O-])CN(CCN(CC(=O)[O-])Cc1cc(CCC(=O)N[C@@H](CCC(=O)O)C(=O)O)ccc1[O-])Cc1cc(CCC(=O)NC(P(=O)(O)O)P(=O)(O)O)ccc1[O-].[68Ga+3] [[^68Ga]1f] ?
0.01
